target.under.test: T1, recombinant human GM-CSF protein (human, UniProt P04141 18-144)
T1 construct: Bought recombinant protein (Genscript); also called biotinylated human GM-CSF protein
protocol.text: SPR Biacore T200, antibody captured by anti-human Fc, GM-CSF as analyte, 25 C, 1:1 model
Experimental: The binding kinetics of humanized antibodies were measured by Biacore as previously described. […] The binding kinetics assay of antibody to antigen was performed using Biacore T200 system through a human antibody capture approach. The anti-human Fc IgG were immobilized on CMS sensor chip according to the manufacturer's instruction. […] And then serial concentrations of the antigen were individually injected, and the binding profile was recorded for each concentration of antigen analyte, respectively. […]
measured.metric: koff (s⁻¹)
Record the value in s⁻¹, omitting the unit from your answer.

binder	koff [s⁻¹]
Hu50C5-18 (antibody, V domains shown, Humanized) VH: EVQLVQSGAEVKKPGSSVKVSCKASGYIFSPYSIHWVRQAPGQGLEWIGYINPSTGYIEYNQHFKDRTTLTADKSTSTAYMELRSLRSEDTAVYYCARGGDYEGYFDYWGQGTTVTVSS VL: DIQMTQSPSSLSASVGDRVTITCRLNENIYSFLAWYQQKPGKAPKLLVYNAETLAEDVPSRFSGSGSGTDFTLTISSLQPEDFATYYCQQHYGTPYTFGGGTKVEIK	0.000109
23F4 chimera (antibody, V domains shown, Human constant regions (captured by anti-human Fc IgG); also called Hu23F4-chimera) VH: QVQLQQSGPELVKPGTSMKISCKTSDYTLTSHYLHWVKQRPGQGLEWIGWIFPGDDKTKYNEKFKGKATLTSDKTSNTAYMQLSSLTSEESAVYFCARGTKYLNWNFDVWGTGTTVTVSS VL: DIVLTQPQKFLSTSVGDRVSVTCKANQNVGTTLAWYQQKPGQSPKALIYSASYRYSGVPDRFTGSGSGTDFTLTISNVQSEDLAEYFCHQYTTYPLTFGGGTKLEIK	3.87e-05
Hu50C5-19 (antibody, V domains shown, Humanized; also called 35230Hu50C5-19) VH: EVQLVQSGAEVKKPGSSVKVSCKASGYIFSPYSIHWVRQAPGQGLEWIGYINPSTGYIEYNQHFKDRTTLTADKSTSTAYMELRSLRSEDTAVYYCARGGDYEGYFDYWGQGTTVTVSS VL: DIQMTQSPSSLSASVGDRVTITCRLNENIYSFLAWYQQKPGKAPKLLVYNAETLAEDVPSRFSGSGSGTQFTLTISSLQPEDFATYYCQQHYGTPYTFGGGTKVEIK	0.000106
Hu50C5-17 (antibody, V domains shown, Humanized; also called 35230Hu50C5-17) VH: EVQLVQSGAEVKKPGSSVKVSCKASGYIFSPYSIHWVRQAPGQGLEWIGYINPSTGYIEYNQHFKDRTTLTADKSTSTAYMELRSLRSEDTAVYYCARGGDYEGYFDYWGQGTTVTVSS VL: DIQMTQSPSSLSASVGDRVTITCRLNENIYSFLAWYQQKPGKAPKLLVYNAETLAEGVPSRFSGSGSGTDFTLTISSLQPEDFATYYCQQHYGTPYTFGGGTKVEIK	0.000111
Hu23F4-29 (antibody, V domains shown, Humanized) VH: EVQLVQSGAEVKKPGASVKVSCKASGYTFTSHYLHWVRQAPGQGLEWMGWIFPGDDKTKYNEKFKGRVTLTSDTSISTAYMELSRLRSDDTAVYYCARGTKYLNWNFDVWGQGTTVTVSS VL: DIQLTQSPSFLSASVGDRVTITCKANQNVGTTLAWYQQKPGKAPKALIYSASYRYSGVPSRFSGSGSGTEFTLTISSLQPEDFATYYCHQYTTYPLTFGGGTKVEIK	0.000101

Entry Hu50C5-21 (antibody, V domains shown, Humanized; also called 35230Hu50C5-21) VH: EVQLVQSGAEVKKPGSSVKVSCKASGYIFTPYSIHWVRQAPGQGLEWIGYINPSTGYIEYNQHFKDRTTLTADKSTSTAYMELRSLRSEDTAVYYCARGGDYEGYFDYWGQGTTVTVSS VL: DIQMTQSPSSLSASVGDRVTITCRLNENIYSFLAWYQQKPGKAPKLLIYNAETLAEGVPSRFSGSGSGTDFTLTISSLQPEDFATYYCQQHYGTPYTFGGGTKVEIK — recorded koff = 0.000108

Item: Hu50C5-8 (antibody, V domains shown, Humanized; also called 35230Hu50C5-8) VH: EVQLVQSGAEVKKPGSSVKVSCKASGYIFSPYSIHWVRQAPGQGLEWMGYINPSTGYIEYNQHFKDRVTITADKSTSTAYMELRSLRSEDTAVYYCARGGDYEGYFDYWGQGTTVTVSS VL: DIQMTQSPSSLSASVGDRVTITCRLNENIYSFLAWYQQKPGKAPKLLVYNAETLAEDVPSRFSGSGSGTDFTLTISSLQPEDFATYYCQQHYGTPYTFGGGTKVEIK | koff: 0.000139

koff reported for this binder Hu23F4-36 (antibody, V domains shown, Humanized) VH: EVQLVQSGAEVKKPGASVKVSCKASDYTLTSHYLHWVRQAPGQGLEWIGWIFPGDDKTKYNEKFKGRATLTSDTSISTAYMELSRLRSDDTAVYYCARGTKYLNWNFDVWGQGTTVTVSS VL: DIQLTQSPSFLSASVGDRVTITCKANQNVGTTLAWYQQKPGKAPKLLIYSASYRYSGVPSRFSGSGSGTEFTLTISSLQPEDFATYYCHQYTTYPLTFGGGTKVEIK : 0.000103

Memo: Hu23F4-23 (antibody, V domains shown, Humanized) VH: EVQLVQSGAEVKKPGASVKVSCKASGYTFTSHYLHWVRQAPGQGLEWMGWIFPGDDKTKYNEKFKGRVTMTRDTSISTAYMELSRLRSDDTAVYYCARGTKYLNWNFDVWGQGTTVTVSS VL: DIQLTQSPSFLSASVGDRVTITCKANQNVGTTLAWYQQKPGKSPKALIYSASYRYSGVPDRFSGSGSGTDFTLTISSLQPEDFATYFCHQYTTYPLTFGGGTKVEIK , reported koff: 0.000116

For Hu23F4-27 (antibody, V domains shown, Humanized) VH: EVQLVQSGAEVKKPGASVKVSCKASGYTFTSHYLHWVRQAPGQGLEWMGWIFPGDDKTKYNEKFKGRVTMTSDTSISTAYMELSRLRSDDTAVYYCARGTKYLNWNFDVWGQGTTVTVSS VL: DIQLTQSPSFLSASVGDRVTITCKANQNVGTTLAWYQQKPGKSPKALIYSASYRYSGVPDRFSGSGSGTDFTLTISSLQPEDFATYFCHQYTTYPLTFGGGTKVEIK the binder record lists koff as 9.46e-05
